# procedure summary: in vivo
# run parameters: both sexes, cynomolgus monkey, MTD after a single-dose administration
readout label: MTD (mg/kg)
State the answer as a number, implicitly in mg/kg.

Param item = COc1nc(-c2cc(C)c(N[C@@H](C)c3ccc(F)cc3)nn2)ccc1-n1cnc(C)c1 [BPN-15606] ; retrieve measured MTD.
300

---

# procedure summary: Repeat-dose (9-day) efficacy study in rats
# Assay type: in vivo, Sprague–Dawley rats
# run parameters: male, Sprague-Dawley, rat, in vivo
readout label: NOAEL at 9 days

Which NOAEL at 9 days value belongs to COc1nc(-c2cc(C)c(N[C@@H](C)c3ccc(F)cc3)nn2)ccc1-n1cnc(C)c1 ?
50 mg/kg

---

# procedure summary: in vivo
# run parameters: both sexes, cynomolgus monkey, po, repeat dose
readout label: MTD at 6 days

Given the compound COc1nc(-c2cc(C)c(N[C@@H](C)c3ccc(F)cc3)nn2)ccc1-n1cnc(C)c1 , what is its reported MTD at 6 days?
< 300 mg/kg/day

---

# procedure summary: PK in rat (i.v./po)
# Assay type: in vivo
# run parameters: male, plasma, Sprague–Dawley rats, 5 mg/kg po vs 1 mg/kg i.v.
readout label: bioavailability

Name the reported bioavailability value associated with the molecule COc1nc(-c2cc(C)c(N[C@@H](C)c3ccc(F)cc3)nn2)ccc1-n1cnc(C)c1
> 60%

---

# procedure summary: PK in nonhuman primates (i.v./po)
# Format: in vivo
# run parameters: male, cynomolgus monkey, plasma; cynomolgus monkeys; 2 mg/kg po vs 1 mg/kg i.v.
readout label: bioavailability
Write the figure, then the unit, nothing else.

Requested read-out: bioavailability. Entry: COc1nc(-c2cc(C)c(N[C@@H](C)c3ccc(F)cc3)nn2)ccc1-n1cnc(C)c1
30.8%

---

# procedure summary: Toxicokinetics in rats (7-day po)
# Type: in vivo
# run parameters: male, Sprague-Dawley, rat, plasma, rats po, depending on dose, read-out: Tmax for individual animals
# Protocol: Data were subjected to noncompartmental analysis using WinNonlin Phoenix Model 200 (for extravascular administration) or Model 201 (for i.v. bolus administration) and the sparse sampling feature; a uniform weighting factor was applied to each data set. Time to maximum plasma concentration (Tmax) and maximum plasma concentration (Cmax) values were determined directly from the data. […] Values were calculated using the plasma data from composite groups. […]
readout label: Tmax

I'd like to know its Tmax. The compound in question is COc1nc(-c2cc(C)c(N[C@@H](C)c3ccc(F)cc3)nn2)ccc1-n1cnc(C)c1
4 to 24 h

---

# subject of test: γ-secretase (Homo sapiens)
# procedure summary: SHSY5Y-APP cell-based MSD Aβ triplex screening assay
# run parameters: human SHSY5Y neuroblastoma cells stably overexpressing human APP751 wild-type; read-out: Aβ42 IC50
readout label: IC50 (nM)
Field format: number, assumed nM, no unit text.

Given the entry COc1nc(-c2cc(C)c(N[C@@H](C)c3ccc(F)cc3)nn2)ccc1-n1cnc(C)c1 , report its measured IC50.
7

---

# procedure summary: Toxicokinetics in NHP (300 mg/kg repeat dose)
# Format: in vivo, cynomolgus macaques
# run parameters: both sexes, cynomolgus monkey, plasma, po, 300 mg/kg, cynomolgus macaques, 300 mg/kg po, day 1
readout label: half-life
Please state the value followed by its unit.

Consider the compound shown here: COc1nc(-c2cc(C)c(N[C@@H](C)c3ccc(F)cc3)nn2)ccc1-n1cnc(C)c1 What is its recorded half-life?
8.7 h

---

# procedure summary: in vivo
# run parameters: male, Sprague-Dawley, rat, po
readout label: MTD at 7 days

Request the reported MTD at 7 days associated with COc1nc(-c2cc(C)c(N[C@@H](C)c3ccc(F)cc3)nn2)ccc1-n1cnc(C)c1
~100 mg/kg/day

---

# procedure summary: Toxicokinetics in rats (7-day po)
# Format: in vivo
# run parameters: male, Sprague-Dawley, rat, plasma, 30 mg/kg, rats, 30 mg/kg, day 1, read-out: mean Tmax
readout label: Tmax (h)
Report the value in h with no unit label.

Requested read-out: Tmax. Entry: COc1nc(-c2cc(C)c(N[C@@H](C)c3ccc(F)cc3)nn2)ccc1-n1cnc(C)c1
13.3

---

# procedure summary: Toxicokinetics in NHP (300 mg/kg repeat dose)
# Type: in vivo, cynomolgus macaques
# run parameters: both sexes, cynomolgus monkey, plasma; cynomolgus macaques, 300 mg/kg po
readout label: Tmax

Sample COc1nc(-c2cc(C)c(N[C@@H](C)c3ccc(F)cc3)nn2)ccc1-n1cnc(C)c1 — what was its Tmax?
2 to 4 h

---

# procedure summary: Toxicokinetics in rats (7-day po)
# Format: in vivo
# run parameters: male, Sprague-Dawley, rat, plasma, rats, 100 mg/kg, day 1, read-out: mean residence time to the last time point
readout label: MRT last (h)
Numbers only; they are read as h.

// returns reported MRT last for input COc1nc(-c2cc(C)c(N[C@@H](C)c3ccc(F)cc3)nn2)ccc1-n1cnc(C)c1 [BPN-15606]
13.6

---

# procedure summary: Toxicokinetics in rats (7-day po)
# Type: in vivo
# run parameters: male, Sprague-Dawley, rat, plasma, 30 mg/kg, rats, 30 mg/kg, day 7, read-out: mean Tmax
readout label: Tmax (h)
Enter your answer as a number in h; do not include the unit.

Which measured Tmax value corresponds to COc1nc(-c2cc(C)c(N[C@@H](C)c3ccc(F)cc3)nn2)ccc1-n1cnc(C)c1 ?
6.7
